target: Heat shock factor protein 1 (Homo sapiens); test: ATG_HSE_CIS: Attagene CIS-FACTORIAL HepG2 Assay for human Heat Shock Transcription Factor 1 (HSE) (AID 2282953); settings: HepG2 HSE cis-reporter, Attagene RNA transcription; actives raise or lower the signal
Calls of active or inactive are those of the source. Rule for the calls: active = hit-call score of the fitted dose curve at least 0.9, where 1 is the maximum; inactive = score below 0.9.
Assign a class; possible classes are T for active, F for inactive

Solved cases below.
compound | test.target | class.name
NCc1cccc(C2CCN(C(=O)c3ccc(C#Cc4ccccc4F)o3)CC2)c1 | Heat shock factor protein 1 (Homo sapiens) | T
CC[C@H](NC(=O)c1cc(F)ccc1NS(=O)(=O)c1cccc2cccnc12)c1ccccc1 | Heat shock factor protein 1 (Homo sapiens) | F
Clc1cc(Cl)c2c(c1)N=C1CCCCCN1C2 | Heat shock factor protein 1 (Homo sapiens) | F
O=C1c2ccccc2C(=O)N1CCc1noc(-c2ccc(CN3CCCCCC3)s2)n1 | Heat shock factor protein 1 (Homo sapiens) | F
COCC(C)OCC(C)OCC(C)O (configuration not stated) | Heat shock factor protein 1 (Homo sapiens) | F
C[C@]12CC[C@@H]3c4ccc(O)cc4CC[C@H]3[C@@H]1CCC2=O | Heat shock factor protein 1 (Homo sapiens) | F
Cc1cn([C@H]2C[C@H](N=[N+]=[N-])[C@@H](CO)O2)c(=O)[nH]c1=O | Heat shock factor protein 1 (Homo sapiens) | F
O=C(Nc1ccc(Cl)cc1)Nc1ccc(Cl)c(Cl)c1 | Heat shock factor protein 1 (Homo sapiens) | F
CC(C)(C)c1cc(/C=C2\SC(N)=NC2=O)cc(C(C)(C)C)c1O | Heat shock factor protein 1 (Homo sapiens) | T
CCN(CC)C(=O)c1cc(S(=O)(=O)Cc2ccccc2)c(N2CCC(c3ccccc3)CC2)cc1N(CC)CCN(C)C | Heat shock factor protein 1 (Homo sapiens) | F

Lookup: Per the assay record, what outcome was assigned to CCCCOC(=O)CC(CC(=O)OCCCC)(OC(C)=O)C(=O)OCCCC ?
Found: F

Hey, just so you know, these numbers are from PubChem BioAssay (EPA / NIEHS).
